Experimental Target: T1, HCoV-OC43 spike antigens (bead panel) (HCoV-OC43, UniProt P36334 14-1297)
T1 sequence: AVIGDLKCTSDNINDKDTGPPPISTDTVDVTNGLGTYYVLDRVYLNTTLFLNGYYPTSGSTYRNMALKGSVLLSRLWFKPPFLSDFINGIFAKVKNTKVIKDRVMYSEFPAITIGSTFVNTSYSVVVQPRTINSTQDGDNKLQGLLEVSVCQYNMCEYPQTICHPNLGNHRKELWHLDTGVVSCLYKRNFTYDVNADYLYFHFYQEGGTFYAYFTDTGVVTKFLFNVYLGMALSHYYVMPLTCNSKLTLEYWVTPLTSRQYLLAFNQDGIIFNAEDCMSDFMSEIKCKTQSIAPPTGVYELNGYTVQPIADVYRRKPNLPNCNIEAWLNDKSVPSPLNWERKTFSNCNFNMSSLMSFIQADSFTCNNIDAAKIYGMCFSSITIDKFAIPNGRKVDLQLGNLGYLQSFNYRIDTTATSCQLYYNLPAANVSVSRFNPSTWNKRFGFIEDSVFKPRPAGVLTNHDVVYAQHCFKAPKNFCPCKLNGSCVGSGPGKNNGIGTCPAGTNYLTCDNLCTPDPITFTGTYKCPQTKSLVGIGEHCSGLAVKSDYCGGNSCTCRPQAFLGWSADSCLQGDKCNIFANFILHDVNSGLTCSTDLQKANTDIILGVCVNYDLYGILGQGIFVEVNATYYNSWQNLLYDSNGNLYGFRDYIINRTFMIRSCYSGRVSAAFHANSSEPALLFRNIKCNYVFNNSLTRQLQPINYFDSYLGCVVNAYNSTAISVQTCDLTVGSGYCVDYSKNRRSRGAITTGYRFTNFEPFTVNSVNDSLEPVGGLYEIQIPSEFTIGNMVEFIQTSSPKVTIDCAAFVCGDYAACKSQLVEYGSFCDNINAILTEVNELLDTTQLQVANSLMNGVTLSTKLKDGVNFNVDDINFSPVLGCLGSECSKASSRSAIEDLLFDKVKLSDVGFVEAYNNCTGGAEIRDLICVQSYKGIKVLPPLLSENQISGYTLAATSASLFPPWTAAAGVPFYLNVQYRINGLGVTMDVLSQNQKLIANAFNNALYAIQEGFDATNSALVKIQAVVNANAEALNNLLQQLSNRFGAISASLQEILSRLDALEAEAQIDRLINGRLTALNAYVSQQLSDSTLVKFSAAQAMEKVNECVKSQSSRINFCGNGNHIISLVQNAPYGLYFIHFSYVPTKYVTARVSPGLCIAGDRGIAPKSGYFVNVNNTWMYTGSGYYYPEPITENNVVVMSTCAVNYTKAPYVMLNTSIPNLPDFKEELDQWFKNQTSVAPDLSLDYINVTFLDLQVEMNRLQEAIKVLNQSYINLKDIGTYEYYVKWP
Assay Explanation: multiplex bead assay
Measured Metric: binding result

INSERT INTO assay_data (binder, result_value) VALUES
  ('COV_1007 (antibody, V domains shown, human IgG1) VH: QVTLKESGPVLVKPTETLTLTCTVSGFSLINARVGVSWIRQPPGKALDWLAHIFSSDEKSYSTSLKSRLTISKDTSKSQVVLTMTNMDPVDTATYYCARIRWLSSYYFDYWGQGTLVTVSS VL: DIRMTQSPSSVSASVGDRVTITCRASQGISNWLAWYQQKPGKAPKLLIYAASSLQSGVPSRFSGGGSGTDFTLTISSLQPEDFATYYCQQANSFLLTFGGGTKVEIK', 'no binding'),
  ('COV_2137 (antibody, V domains shown, human IgG1) VH: EVQLVESGGGLVKPGGSLRLSCAASGFTFSSYTMNWVRQAPGKGLEWVSSISSGSSFIYYADSLRGRFTISRDNAKNSLYLQMNSLRAEDTAVYYCARAPEPQSVIYAYWYFDLWGRGTLVTVSS VL: QSALTQPASVSGSPGQSITFSCTGTSSDVGSYNLVSWYQQYPGKAPKLMIYEVNKRPSGVSNRFSGSKSGNTASLTISGLQAEDEADYYCCSYAGSSTFYVFGTGTKVTVLG', 'no binding');
